Kindly state cell viability for each of the entries shown.
System: NOMO1
Assay notes: cell viability relative to DMSO control; higher = less cytotoxic
Particulars: RPMI 5 mM glucose + 10% FBS; 48 h; 1.71 µM
I only need the number, in %, no unit after it.

Ask | Which cell viability is reported for this molecule? Nc1nccc(-c2ccc3noc(-c4ccc(Cl)cc4)c3c2)n1
Reply | 107

Ask | Bench note: what cell viability did COC(=O)CCC1=C(C)C2=CC3=NC(=CC4=C(C)C(=C([NH]4)C=C\5N=C(C=C1[NH]2)\C(=C5C)CCC(O)=O)C=C)\C6=C\C=C(/[C@@H](C(=O)OC)[C@@]36C)C(=O)OC show?
Reply | 102

Ask | Request the reported cell viability associated with C[C@]12CC[C@H]3[C@@H](CC[C@@]45O[C@@H]4C(O)=C(C#N)C[C@]35C)[C@@H]1CC[C@@H]2O
Reply | 118

Ask | Could you share which cell viability value was measured for OC1=C(Cl)C=C(N\C2=C(\C(=O)NC2=O)C3=C(C=CC=C3)[N+]([O-])=O)C=C1 ?
Reply | 95.4

Ask | State the recorded cell viability for this entry: O=C(O)c1cccnc1
Reply | 101
